Provenance of the data: patent US9427415B2

- System: TRPA1V1
- assay-overview: Intracellular calcium (Fluo-4, FLIPR) activation of TRPA1V1 cells (co-expressing TRPA1 and TRPV1) by GRAS compounds
- Format: cell-based, human
- experimental-conditions: Table 1(h); 1 mM; relative to capsaicin 350 nM
Provide the recorded A1V1 activation, % of agonist value for the entries that follow.
Give a bare numeral; the unit % is implied.

Input: Query for TRPA1V1: what A1V1 activation, % of agonist value does the record show for CC(C)[C@@H]1CC[C@@H](C)C[C@@H]1O [(+)-Neomenthol] ?
Output: 44.8

Input: Query for TRPA1V1: what A1V1 activation, % of agonist value does the record show for O=C(O)C(O)C(O)C(=O)O (centres unmarked) ?
Output: 29.6

Input: Query for TRPA1V1: what A1V1 activation, % of agonist value does the record show for `Cc1ccc(C)c(O)c1` ?
Output: 34.2

Input: Query for TRPA1V1: what A1V1 activation, % of agonist value does the record show for O=C([O-])[C@H](O)[C@@H](O)[C@H](O)[C@H](O)CO.[K+] [Gluconic acid, monopotassium salt] ?
Output: 14.0

Input: Query for TRPA1V1: what A1V1 activation, % of agonist value does the record show for `O=C(/C=C/C=C/c1ccc2c(c1)OCO2)N1CCCCC1` ?
Output: 57.1

Input: Query for TRPA1V1: what A1V1 activation, % of agonist value does the record show for CCC(C)(O)CCc1ccccc1 (centres unmarked) ?
Output: 70.5

Input: Query for TRPA1V1: what A1V1 activation, % of agonist value does the record show for `CC(C)c1ccccc1O` ?
Output: 83.5

Input: Query for TRPA1V1: what A1V1 activation, % of agonist value does the record show for `Cc1cccc(C)c1O` ?
Output: 45.8

* * *

Provide the recorded A1V1 activation, % of agonist value for the entries that follow.
- System: TRPA1V1
- assay-overview: Intracellular calcium (Fluo-4, FLIPR) activation of TRPA1V1 cells (co-expressing TRPA1 and TRPV1) by GRAS compounds;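 also: HEK293 cells co-expressing TRPA1 and TRPV1, fluorescence read at 488/514 nm after baseline subtraction, recorded every 2 s over 10 min, ionomycin 10 µM and buffer as controls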
- Format: cell-based, human
- experimental-conditions: Table 1(c); 1 mM; relative to AITC 30 μM
Give a bare numeral; the unit % is implied.

Input: Query for TRPA1V1: what A1V1 activation, % of agonist value does the record show for CC(=O)c1ccc(O)cc1 [p-Hydroxyacetophenone] ?
Output: 49.38

Input: Query for TRPA1V1: what A1V1 activation, % of agonist value does the record show for Cc1cccc(C)c1S [2,6-Dimethylthiophenol] ?
Output: 85.5

Input: Query for TRPA1V1: what A1V1 activation, % of agonist value does the record show for CC/C=C/C=C/CO [(E,E)-Hepta-2,4-dien-1-ol] ?
Output: 133.3

Input: Query for TRPA1V1: what A1V1 activation, % of agonist value does the record show for CCCCCC(C=O)=Cc1ccccc1 [alpha-Amylcinnamaldehyde] ?
Output: 82.7

Input: Query for TRPA1V1: what A1V1 activation, % of agonist value does the record show for CC(S)CS (centres unmarked) [1,2-Propanedithiol] ?
Output: 73.3

Input: Query for TRPA1V1: what A1V1 activation, % of agonist value does the record show for Cn1cccc1C=O [1-Methylpyrrole-2-carboxaldehyde] ?
Output: 87.70

Input: Query for TRPA1V1: what A1V1 activation, % of agonist value does the record show for O=Cc1ccccc1O [Salicylaldehyde] ?
Output: 65.6

Input: Query for TRPA1V1: what A1V1 activation, % of agonist value does the record show for C/C=C/C=C/C=O [(E,E)-2,4-Hexadienal] ?
Output: 108.71

Input: Query for TRPA1V1: what A1V1 activation, % of agonist value does the record show for CC/C=C\CC/C=C/C=O [2-trans-6-cis-Nonadienal] ?
Output: 81.22

Input: Query for TRPA1V1: what A1V1 activation, % of agonist value does the record show for CCOc1cc(C2OCC(C)O2)ccc1O (centres unmarked) [Ethyl vanillin propylene glycol acetal] ?
Output: 72.64

Input: Query for TRPA1V1: what A1V1 activation, % of agonist value does the record show for `COC(=O)c1ccccc1N(C)C` ?
Output: 77.15

Input: Query for TRPA1V1: what A1V1 activation, % of agonist value does the record show for CC/C=C\CCCCC=O [cis-6-Nonenal] ?
Output: 93

Input: Query for TRPA1V1: what A1V1 activation, % of agonist value does the record show for CC(C)=CCCC(C)C=O (centres unmarked) [Melonal] ?
Output: 57

Input: Query for TRPA1V1: what A1V1 activation, % of agonist value does the record show for CCCSSc1ccoc1C [Propyl 2-methyl-3-furyl disulfide] ?
Output: 242.5

Input: Query for TRPA1V1: what A1V1 activation, % of agonist value does the record show for COC(=O)CCCc1ccccc1 [Methyl 4-phenylbutyrate] ?
Output: 50.30

Input: Query for TRPA1V1: what A1V1 activation, % of agonist value does the record show for OC[C@H]1O[C@@](CO)(O[C@H]2O[C@H](CO)[C@@H](O)[C@H](O)[C@H]2O)[C@@H](O)[C@@H]1O [Sucrose] ?
Output: 80.86

Input: Query for TRPA1V1: what A1V1 activation, % of agonist value does the record show for O=C(O)C=Cc1ccccc1 [Cinnamic acid] ?
Output: 42.5

Input: Query for TRPA1V1: what A1V1 activation, % of agonist value does the record show for O=C(OCCc1ccccc1)c1ccco1 [2-Furoic acid, phenethyl ester] ?
Output: 145

Input: Query for TRPA1V1: what A1V1 activation, % of agonist value does the record show for CC1=CC(=O)CCC1 [3-Methyl-2-cyclohexen-1-one] ?
Output: 94.76

Input: Query for TRPA1V1: what A1V1 activation, % of agonist value does the record show for Cc1ccc(C(C)O)cc1 (stereo not drawn) [Benzyl alcohol, p,alpha-dimethyl-] ?
Output: 71.8

Input: Query for TRPA1V1: what A1V1 activation, % of agonist value does the record show for COc1ccc(C=O)cc1OC [Veratraldehyde] ?
Output: 69.76

Input: Query for TRPA1V1: what A1V1 activation, % of agonist value does the record show for C=CC(C)=CCC=C(C)C [beta-Ocimene] ?
Output: 92

Input: Query for TRPA1V1: what A1V1 activation, % of agonist value does the record show for CC(C)CC(O)Cc1ccccc1 (stereo not drawn) [Alpha-Isobutylphenethyl alcohol] ?
Output: 58.62
